- MEASURED_TARGET: 185-kinase (UniProt P19525 185-551)
- Sequence (P19525 185-551): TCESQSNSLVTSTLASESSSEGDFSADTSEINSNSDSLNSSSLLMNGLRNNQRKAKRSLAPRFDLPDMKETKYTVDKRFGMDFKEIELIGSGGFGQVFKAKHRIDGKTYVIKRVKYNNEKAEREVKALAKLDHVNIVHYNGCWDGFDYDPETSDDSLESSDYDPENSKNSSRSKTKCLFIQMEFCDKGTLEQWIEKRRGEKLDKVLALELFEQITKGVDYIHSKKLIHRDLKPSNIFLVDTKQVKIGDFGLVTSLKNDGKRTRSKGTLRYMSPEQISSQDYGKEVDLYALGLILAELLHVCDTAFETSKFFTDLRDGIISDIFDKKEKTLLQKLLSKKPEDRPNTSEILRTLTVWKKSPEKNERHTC
- PROCEDURE_DETAILS: sedimentation velocity AUC; Kd1, sequential 2:1; AU75: 75 mM HEPES pH 7.5, 75 mM NaCl, 0.1 mM EDTA, 0.1 mM TCEP, 20 °C, 50,000 rpm, 260 nm; errors are confidence intervals (95% joint stated for Table 2); crosslinking in AU75 + 10 mM EDTA, 0.5 µM RNA, 1 µM protein, on ice before UV
- STATED_CONDITIONS: protein: recombinant; tags: TEV-cleaved, extra N-terminal Gly; chain copies: 2; single strand
READOUT_NAME: Kd

Field Kd (entry UUUUUUUUUUUUUUUUUUUUUUUUUUUUUU (ssRNA) [U30] ) reads 31.9 µM

These measurements were taken from paper PMC5469796.
